Biological target: T1, RBFOX1 RRM RbFoxmut (Fox-RRM*) (Homo sapiens, UniProt Q9NWB1 109-208, R118D;E147R;N151S;E152T)
T1 sequence: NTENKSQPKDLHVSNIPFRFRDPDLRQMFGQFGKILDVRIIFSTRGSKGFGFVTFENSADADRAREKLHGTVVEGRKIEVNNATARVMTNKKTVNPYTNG
Assay: EMSA; HiTS-Eq, 1 nM pool, 10 min; buffer printed only for the single-RNA assays: 10 mM Tris pH 7.5, 150 mM NaCl, 3.4 mM EDTA, 0.001% NP-40, 30 C
Settings: tags: His6 N-terminal (pET28a); label: 5' 32P
The full ranking holds about 16,000 sequences; the median of “ka relative to ugcaugu” is about 0.096, and the highest 2% start at about 0.35. This excerpt belongs to a sample that is enriched for the highest values.
Items are presented alongside their recorded binding signal.

BINDER	binding signal
AAAUGUC (DNA:RNA) RNA: GGGAGACCGGAAUUCAGAUUGUCCAAAUGUCUUAAAUCCCGUCGUAGCCACCA DNA 1: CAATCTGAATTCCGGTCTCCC DNA 2: TGGTGGCTACGACGGGATT	0.145 KA relative to UGCAUGU

Measured binding signal, UGCGUAU (DNA:RNA) RNA: GGGAGACCGGAAUUCAGAUUGUCCUGCGUAUUUAAAUCCCGUCGUAGCCACCA DNA 1: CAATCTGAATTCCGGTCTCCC DNA 2: TGGTGGCTACGACGGGATT : 0.143 KA relative to UGCAUGU

Values from paper PMC9911399
